Test: RAM signaling pathway blockade in yeast – S. cerevisiae, Pdr1DBD-CYC8 efflux-inhibited sensitized strain, primary screen (AID 1298);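 also: 0% = DMSO untreated cells without growth and 100% = 10 µM 1-NA-PP1 full growth; higher means more yeast growth rescued from 5-FOA killing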
Details: S. cerevisiae cbk1-as DSE1-URA3 strain, 5-FOA growth OD615, 2 d; at 50 µM; active compounds read high
In this section we review reported RAM network inhibition values for a set of compounds.
Value expressed in %; do not type the unit.

Reference set, count: 5
> print(dat)
                                   compound  measured.result
1  CC(c1cccnc1)N(C(=O)Nc1ccccc1)C1CCCCC1 (stereo unspecified)             5.08
2     O=C(CSc1ccc2c(c1)OCCO2)NC(=O)NC1CCCC1            -1.28
3  O=C(O)C1C2C=CC(C2)C1C(=O)OCC1CCCO1 (stereo unspecified)             1.34
4       Cc1ccc(C(=O)CSc2nnc(-c3cccs3)n2C)o1              3.7
5    COC(=O)c1c(NC(=O)CCN2CCOCC2)sc2c1CCCC2             4.32

Please give measured RAM network inhibition of the following entry: CCN1CCCC1CNC(=O)c1cc2c(-c3ccc(Cl)cc3)nn(C)c2s1 (stereo unspecified) 8.33

Give the reported RAM network inhibition for this compound. COCCn1c(SCC(=O)Nc2cc(Cl)ccc2OC)nc2c(c1=O)SC(C)C2 (stereo unspecified) -0.36

Identify measured RAM network inhibition corresponding to CCOCCCNC(=O)c1cc2c(-c3ccc(Cl)cc3)nn(C)c2s1 1.34

Using the record for CCCOc1ccc(C2c3c(oc4cc(C)c(C)cc4c3=O)C(=O)N2CCCN2CCOCC2)cc1 (stereo unspecified) , state its measured RAM network inhibition. 0.73

Please give the documented RAM network inhibition of O=S(=O)(CCc1nnc(-c2ccccc2)o1)c1ccc2ccccc2c1 10.4

State its RAM network inhibition: Cc1ccc(N2CC(c3nc4ccccc4n3C)CC2=O)cc1C (stereo unspecified) 3.07

Please look at this compound and report its RAM network inhibition: Cc1cc(C)n2nc(SCC#N)nc2n1 4.36

Input CC(=O)N(c1c(C)n(C)n(-c2ccccc2)c1=O)C1(C(=O)NC2CCCC2)CCCCC1 , output reported RAM network inhibition. -1.24

// Input: COc1cc2c(C(=O)NCc3ccccn3)cn(CC(C)C)c(=O)c2cc1OC . Output its RAM network inhibition only. 1.16

Specify measured RAM network inhibition for O=S(=O)(c1ccc(N2CC=C(c3ccccc3)CC2)nc1)N1CCCC1 . 2.69

Indicate its recorded RAM network inhibition; the compound in question is COC(=O)CC1=C(C)C(=O)CC2C(C)(C)CCCC12C (stereo unspecified) 4.48

Answer with reported RAM network inhibition of CCOC(=O)c1cc2c(=O)n3ccccc3nc2n(C(C)C)c1=NC(=O)c1ccncc1 -0.58

Give reported RAM network inhibition value for CC1(C)Nc2ccccc2N(CCC(=O)N2CCOCC2)C1=O 2.81

# return recorded RAM network inhibition for input CCOC(=O)N1CCC(NC(=O)c2cc3c(-c4ccc(Cl)cc4)nn(C)c3s2)CC1 2.43

// Input: CCCC(C(=O)N1CCOCC1)N1C(=O)C2C3C=CC(C3)C2C1=O (stereo unspecified) . Output its RAM network inhibition only. -0.83

For the compound C=CCSc1nnc(CSc2nc3sc4c(c3c(=O)[nH]2)CCCC4)n1-c1ccccc1 , give its reported RAM network inhibition. 11

Entry Cc1ccc(N(CC(O)CN2CCCC2)S(=O)(=O)c2ccccc2)cc1 (stereo unspecified) needs its RAM network inhibition filled in; supply it. 5.78

Give the reported RAM network inhibition for this compound. Cc1cc(C)n(C(CC(=O)N2CCc3ccccc3C2)C(=O)O)n1 (stereo unspecified) 5.81

Identify measured RAM network inhibition corresponding to CCN1C(=O)NC(c2cccnc2)C(C(=O)OC)=C1C (stereo unspecified) 0.25

###

We begin with a simple list: items and their reported inhibition.
Assay: inhibitors of the yeast RAM network, pilot screen, dse1pr::URA3 reporter, 5-FOA selection (AID 869);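 also: 0% = DMSO wells with no growth and 100% = 10 µM 1-NA-PP1 with full growth; RAM network block rescues cells from 5-FOA so hits raise OD615 growth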
Settings: S. cerevisiae dse1pr::URA3 5-FOA growth, OD615, 2 d; at 10 µM; active compounds read high; strain carries analog-sensitive mutant Cbk1 kinase
// return numeric value only (unit: %, not printed)

> print(dat)
                                   compound  measured.attribute  measured.result
1  CC(C)N(Cc1nc(-c2ccccc2)no1)C(=O)COc1ccccc1          inhibition             1.03

Note inhibition for the compound shown: O=S(=O)(NCC(c1cccnc1)N1CCN(c2ccc(F)cc2)CC1)c1cccs1 (stereo not drawn) 2.22

Indicate its recorded inhibition; the compound in question is COc1ccc2[nH]c(C)c(CCN3C(=O)C4C5C=CC(C5)C4C3=O)c2c1 (stereo not drawn) 0.285

Specify inhibition for O=C(NC1CCCCC1)C(c1ccccc1)N1CCCC1 (stereo not drawn) and stop. 1.43

State its inhibition: CC(Oc1ccc(Cl)cc1Cl)C(=O)NCCCN(C)C (stereo not drawn) 1.79

Note inhibition for the compound shown: NS(=O)(=O)c1ccc(S(=O)(=O)NCCc2ccccc2)cc1 1

###

Experiment: inhibitors of the yeast RAM network, pilot screen, dse1pr::URA3 reporter, 5-FOA selection (AID 869);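 also: 0% = DMSO wells with no growth and 100% = 10 µM 1-NA-PP1 with full growth; RAM network block rescues cells from 5-FOA so hits raise OD615 growth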
Settings: S. cerevisiae dse1pr::URA3 5-FOA growth, OD615, 2 d; at 10 µM; active compounds read high; strain carries analog-sensitive mutant Cbk1 kinase
Measured attribute: inhibition (%)
Lab book: enter the figure in %, no units written.

> print(dat)
                                   compound  measured.attribute  unit.descriptor  measured.result
1  COc1ccc(C2N3CC4(C)CN2CC(C)(C3)C4=O)cc1OC (stereo not given)          inhibition                %             1.67
2           CS(=O)(=O)Nc1ccc2c3c(cccc13)CC2          inhibition                %             1.14
3  COc1ccc(CNC(=O)CS(=O)Cc2nc(-c3ccccc3C)oc2C)cc1 (stereo not given)          inhibition                %            0.275
4  O=C(Cc1ccccc1)Nc1c(C(=O)N2CCOCC2)cnn1-c1ccccc1          inhibition                %             1.21
5  O=C(C1CCN(S(=O)(=O)c2cccc3cccnc23)CC1)N1CCN(Cc2ccccc2)CC1          inhibition                %            -0.39
6  Cc1ccc(CNC(=O)CCS(=O)(=O)c2cccc3nsnc23)cc1          inhibition                %             1.64

Provide one value: measured inhibition of CCCn1c(CN2CCCCC2CC)nc2c1c(=O)n(C)c(=O)n2C (stereo not given) 0.045

Please report the measured inhibition for COc1ccc(C(=O)C(OC(=O)CNC(=O)c2ccco2)c2ccccc2)cc1 (stereo not given) 1.49

Please give measured inhibition of the following entry: C=CCn1c(=O)/c(=C/c2cc(OC)c(OC)c(OC)c2)s/c1=C(/C#N)c1nc2ccccc2n1C 3.67

Retrieve inhibition measured for Cc1nnc(NC(=O)CSc2cn(Cc3ccccc3)c3ccccc23)s1 and print it. 2.86

###

Experiment: inhibitors of the yeast RAM network, pilot screen, dse1pr::URA3 reporter, 5-FOA selection (AID 869);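 also: 0% = DMSO wells with no growth and 100% = 10 µM 1-NA-PP1 with full growth; RAM network block rescues cells from 5-FOA so hits raise OD615 growth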
Details: S. cerevisiae dse1pr::URA3 5-FOA growth, OD615, 2 d; at 10 µM; active compounds read high; strain carries analog-sensitive mutant Cbk1 kinase
// values below are reported inhibition
Form entry: value (%) — number only.

// worked examples, inhibition included
> print(dat)
                                   compound  measured.result
1  COc1ccc(-c2cc(C(F)F)n3ncc(C(=O)NCCCN4CCCC4=O)c3n2)cc1           -0.515
2  CCN1CCN(S(=O)(=O)c2ccc3[nH]c(=O)oc3c2)CC1              1.5
3  Cn1c2c(c(=O)n(C)c1=O)C(c1cc3c(cc1Br)OCO3)CC(=O)N2 (stereo not given)           -0.625
4  O=C1CC(C(=O)N2CCN(c3ccc(F)cc3)CC2)CN1CCc1ccccc1 (stereo not given)            -0.23

Answer with reported inhibition of O=C(CN1CCN(c2ncccn2)CC1)NCCC1=CCCCC1 1.9

###

Experiment: OD615 S. cerevisiae growth inhibition, permissive medium, pilot counter-assay, permissive growth control for S. cerevisiae lifespan shortening project (AID 705)
Details: OD615, 24 h, at 10 µM, active compounds read high
Measured attribute: growth inhibition (%)
Hi! Could you send only the number? It should be in %, unit omitted.

Solved entries:
> print(dat)
                                   molecule  measured.attribute  unit.descriptor  measured.result
1  Cc1nc2sc(C(c3cccs3)N3CCN(c4ccccc4)CC3)c(O)n2n1 (stereo unspecified)   growth inhibition                %             0.19
2  O=C(OCC(=O)c1cccs1)c1ccc(NC(=O)c2ccco2)cc1   growth inhibition                %            -6.02
3                    CC(=O)Nc1cccc(N(C)C)c1   growth inhibition                %             3.45

Look up and report measured growth inhibition for this entry: CCOC(=O)C1CCCN(C(=O)c2ccc(CS(=O)(=O)c3ccc(C)cc3)o2)C1 (stereo unspecified) -0.315

Quickly give me recorded growth inhibition for CCOc1ccc(-c2cc(NC(=O)Cn3ncc4c3-c3ccccc3OC4)on2)cc1OCC -7.96

Give growth inhibition for c1nc(N2CCCCC2)c2[nH]cnc2n1 -2.33
